Recorded values, source patent US20220177587A1.

Recorded Relative Luciferase Units (RLU), CD80-Fe Cone 50 nM values for a group of molecules are listed next.
# target: CD28 (Homo sapiens, UniProt P10747)
# assay summary: Jurkat/IL2 + K562/OKT3/PD-L1 reporter assay
# Assay type: cell-based
# Parameters: host or cells: Jurkat cells expressing an IL-2-luciferase reporter
# experimental setup: Table E8; K562/OKT3/PD-L1 aAPC; 50 nM
Give a bare numeral; the unit RLU is implied.

- molecule: "E35D/M47V/A71G/E88D (protein, UniProt P33681 35-288, looked up, variant E35D M47V A71G E88D) T-lymphocyte activation …: VIHVTKEVKEVATLSCGHNVSVEELAQTRIYWQKDKKMVLTMMSGDVNIWPEYKNRTIFDITNNLSIVILGLRPSDEGTYECVVLKYDKDAFKREHLAEVTLSVKADFPTPSISDFEIPTSNIRRIICSTSGGFPEPHLSWLENGEELNAINTTVSQDPETELYAVSSKLDFNMTTNHSFMCLIKYGHLRVNQTFNWNTTKQEHFPDNLLPSWAITLISVNGIFVICCLTYCFAPRCRERRRNERLRRESVRPV"
  experimental value: 1216

# get_value(readout='Relative Luciferase Units (RLU), CD80-Fe Cone 50 nM', item= E35D/M47I/Y87Q/K89E (protein, UniProt P33681 35-288, looked up, variant E35D M47I Y87Q K89E) T-lymphocyte activation …: VIHVTKEVKEVATLSCGHNVSVEELAQTRIYWQKDKKMVLTMMSGDINIWPEYKNRTIFDITNNLSIVILALRPSDEGTYECVVLKQEEDAFKREHLAEVTLSVKADFPTPSISDFEIPTSNIRRIICSTSGGFPEPHLSWLENGEELNAINTTVSQDPETELYAVSSKLDFNMTTNHSFMCLIKYGHLRVNQTFNWNTTKQEHFPDNLLPSWAITLISVNGIFVICCLTYCFAPRCRERRRNERLRRESVRPV ) 1581
